# Tested on: TO-N3 (biotin conjugate)
# assay text: pull-down binding Z-score (relative to library population); higher = stronger binding
# recorded conditions: RNA library: Library-2
parameter: pull-down binding Z-score

Some sequences with recorded pull-down binding Z-score:
CAUCAUAUGCAGCUUUUGCUACUGCUCAAGAAGCUUAUGAGCAGGCUGUUGCUAAUGGUG: -0.917
AGAGUCCUGUUGUUGUAAGAUAGUGUCU [hsa-mir-550a-3]: -0.515
UGUGUGAUAUCAGACA: -0.639
AUCAAGAAAAGAUUUGGUGUUCUUGAU [hsa-mir-4782]: -0.513

QUERY: Report pull-down binding Z-score for UGAACAGUGAUUGGUUUCCGCUUUGUUCA [hsa-mir-27b]
RESULT: 0.133

###

# System: TO-3-N3-2 (biotin conjugate)
# assay text: pull-down binding Z-score (relative to library population); higher = stronger binding
# recorded conditions: RNA library: Library-2
parameter: pull-down binding Z-score
Please reply with the value in numeric form only.

GAAGGGGAGUUUCCCUCUAUUCCCUUC [hsa-mir-3679]: -0.155
AGUCCUGUAAUUAGAUCUCAGGACU [hsa-mir-625]: -0.739
GGAUGUGUUGACCCCUGAAGUGGUUCUGAUGACCUUUCC [hsa-mir-6883]: -0.03
AGUUUACGCCCUGACACACGUUAUGUGCUCAUGGAUGGCU: -0.516
GGAGACACUUUUACUAUAUAUAGUGGCUCC [hsa-mir-3156-1]: -0.555

QUERY: // fetch pull-down binding Z-score given entry AGCUGUUGAACUGGGAACCUGCU [hsa-mir-31]
RESULT: -0.00735

###

# Test system: TO-3-N3 (biotin conjugate)
# assay text: pull-down binding Z-score (relative to library population); higher = stronger binding
# recorded conditions: RNA library: Library-2
Where pull-down binding Z-score equals or exceeds 0.04, the correct label is 1.0; where it does not, the label is 0.0.

Past entries and their recorded results:
CCCGAGGCCCUUCAUGCUGCCCAGCUCGGG [hsa-mir-486-1]: 1.0
GGACCUGAGCGCACCUGUUGUCU [SHAPE_invivo_SARS-CoV-2_Motif_351]: 1.0
UUGUGAUGUUUACCGUUUAAAUCCACGG [hsa-mir-125b-1]: 1.0
CUUUUAUGUCUAUGCUAAUGGAGGUAAAGG [SHAPE_invivo_SARS-CoV-2_Motif_154]: 0.0
CCUACUAAAAAGG: 1.0
AAAUUCUUGGAACUGUUUCUUGGAAUUU: 0.0

QUERY: Kindly determine if pull-down binding Z-score recorded for AUGCUUGGAACAGGAAGAGAAUCAGCAACUGUGUUGCUGAUUAUUCUGUCCUAUAUAAUUCCGCAU [DMSMaPseq_invitro_SARS-CoV-2_Motif_399] is above or exactly 0.04.
RESULT: 0.0

QUERY: hey, is pull-down binding Z-score for this one >= 0.04? GCCUCUUCUCCAUGAGAGGC [hsa-mir-885]
RESULT: 0.0

QUERY: Does pull-down binding Z-score meet or surpass 0.04 for UGGGUGGAUCCUCUAUUUCCUUACGUGGGCCACUGG [hsa-mir-432] ?
RESULT: 1.0

###

# System: TO-N3 (biotin conjugate)
# assay text: pull-down binding Z-score (relative to library population); higher = stronger binding
# recorded conditions: RNA library: Library-2
Catalogue of pull-down binding Z-score values
Form: value (number only, do not type unit).

// known answers, use as guide
GGGCUAGAUUCCC [DMSMaPseq_invitro_SARS-CoV-2_Motif_228]: -0.867
CUCUAUGACAAACUUGUUUCAAGCUUUUUGGAAAUGAAGAGUGAAAAGCAAGUUGAACAAAAGAUCGCUGAG: -0.314
GCUGUGUUGAAUGAUUGGUGAGUUUGUUUGCUCAUUGAUUGAAUCACUGC [hsa-mir-3678]: -0.79
AUUCUGGCUAGGUGAUCAUCAGAAU [hsa-mir-5583-1]: -1.07
AGUCAUAGUCAGUUAGGUGGUUUACAUCUACUGAUUGGACU: -1.35
GAGGGGUGUAUACUGCUGCCGUGAACAUGAGCAUGAAAUUGCUUGGUACACGGAACGUUCUGAAAAGAGCUAUGAAUUGCAGACACCUUUU: -0.034
GCCAUUUGUCAUGAUGGAAAAGCACACUUUCCUCGUGAAGGUGUCUUUGUUUCAAAUGGC: -1.39
UAAGUUGUGAUCAUACCA [hsa-mir-1273g]: -0.24

QUERY: Please supply the value of reported pull-down binding Z-score for the item UGCUUUCGUGGUA
RESULT: 0.0358

QUERY: Please report pull-down binding Z-score for the following sequence: CUCCGGGUUGGGG [hsa-mir-1469]
RESULT: -0.718

Provenance of the data: the supplement of paper PMC11865577
